# Experimental System: human FXR (NR1H4) (Homo sapiens (Human))
# Sequence (Q96RI1 whole entry, the tested form may be a part): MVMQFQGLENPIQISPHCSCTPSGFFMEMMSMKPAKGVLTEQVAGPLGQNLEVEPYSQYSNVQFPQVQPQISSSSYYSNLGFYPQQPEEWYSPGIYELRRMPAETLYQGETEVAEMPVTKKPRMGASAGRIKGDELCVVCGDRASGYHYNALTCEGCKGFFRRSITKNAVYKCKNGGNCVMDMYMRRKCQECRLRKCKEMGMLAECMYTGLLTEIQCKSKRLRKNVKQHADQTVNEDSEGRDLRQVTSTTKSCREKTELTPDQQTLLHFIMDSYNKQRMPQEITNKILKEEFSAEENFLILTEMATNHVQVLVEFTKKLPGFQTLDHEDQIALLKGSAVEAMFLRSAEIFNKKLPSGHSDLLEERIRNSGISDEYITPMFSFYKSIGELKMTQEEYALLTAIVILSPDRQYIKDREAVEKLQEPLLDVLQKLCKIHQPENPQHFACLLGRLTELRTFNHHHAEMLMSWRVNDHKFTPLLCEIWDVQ
# Protocol Description: Human FXR (NR1H4) Assay (Gal4 promoter driven luciferase reporter, Indigo Bioscience kit IB00601)
# Measurement Setup: potency ranges
Property Measured: EC50

compound_smiles=CC[C@H]1[C@@H](O)[C@@H]2[C@H](CC[C@]3(C)[C@@H]([C@H](C)CCNC(=O)NS(=O)(=O)N(C(C)C)C(C)C)CC[C@@H]23)[C@@]2(C)CC[C@@H](O)C[C@@H]12 observed_value="0.1 to 1 µM"
compound_smiles=CC[C@H]1[C@@H](O)[C@@H]2[C@H](CC[C@]3(C)[C@@H]([C@H](C)CCNC(=O)NS(=O)(=O)N4CCN(C(C)(C)C)CC4)CC[C@@H]23)[C@@]2(C)CC[C@@H](O)C[C@@H]12 observed_value="0.1 to 1 µM"
compound_smiles=CC[C@H]1[C@@H](O)[C@@H]2[C@H](CC[C@]3(C)[C@@H]([C@H](C)CCNC(=O)NS(=O)(=O)C4(C)CC4)CC[C@@H]23)[C@@]2(C)CC[C@@H](O)C[C@@H]12 observed_value="< 0.1 µM"
